- Assay Details: Pharmacokinetics in pediatric patients, open label multiple dose study
- Condition Description: human, in vivo, 6 mg/kg, 12-17 yrs old, 6 mg/kg, Day 8
Experimental Readout: Cmax (ng/mL)
Numbers only here, please. The scale is ng/mL.

Query block: Which value of Cmax has been reported for COCCCOc1cc(C[C@@H](C[C@H](N)[C@@H](O)C[C@H](C(=O)NCC(C)(C)C(N)=O)C(C)C)C(C)C)ccc1OC [Aliskiren] in the records?
Result block: 486

* * *

- Assay Details: Pharmacokinetics in pediatric patients, open label multiple dose study
- Condition Description: human, in vivo, 6 mg/kg, 12-17 yrs old, 6 mg/kg, Day 1; read-out: Tmax, Median
Experimental Readout: Tmax (h)
Write down the numeric answer in h and omit the unit.

Query block: Quick check: Tmax of COCCCOc1cc(C[C@@H](C[C@H](N)[C@@H](O)C[C@H](C(=O)NCC(C)(C)C(N)=O)C(C)C)C(C)C)ccc1OC ?
Result block: 1.8

* * *

- Assay Details: Pharmacokinetics in pediatric patients, open label multiple dose study
- Condition Description: human, in vivo, 2 mg/kg, 6-11 yrs old, 2 mg/kg, Day 8
Experimental Readout: Cmax (µg/mL)
# unit: µg/mL | format: bare number

Query block: Could you share which Cmax value was measured for COCCCOc1cc(C[C@@H](C[C@H](N)[C@@H](O)C[C@H](C(=O)NCC(C)(C)C(N)=O)C(C)C)C(C)C)ccc1OC [Aliskiren] ?
Result block: 0.048

* * *

- Assay Details: Pharmacokinetics in pediatric patients, open label multiple dose study
- Condition Description: human, in vivo, 6 mg/kg, 12-17 yrs old, 6 mg/kg, Day 8; read-out: T½, Mean (converted)
Experimental Readout: half-life (h)
Quick reminder: number only, in h, skip the unit.

Query block: I'd like to know its half-life. The compound in question is COCCCOc1cc(C[C@@H](C[C@H](N)[C@@H](O)C[C@H](C(=O)NCC(C)(C)C(N)=O)C(C)C)C(C)C)ccc1OC [Aliskiren]
Result block: 42

* * *

- Assay Details: Pharmacokinetics in pediatric patients, open label multiple dose study
- Condition Description: human, in vivo, 2 mg/kg, 12-17 yrs old, 2 mg/kg, Day 1; read-out: AUCtau, Mean
Experimental Readout: AUC (ng·h/mL)
Output spec: scalar in ng·h/mL, unitless text.

Query block: For the compound shown here, COCCCOc1cc(C[C@@H](C[C@H](N)[C@@H](O)C[C@H](C(=O)NCC(C)(C)C(N)=O)C(C)C)C(C)C)ccc1OC [Aliskiren] , give the reported AUC.
Result block: 391

* * *

- Assay Details: Pharmacokinetics in pediatric patients, open label multiple dose study
- Condition Description: human, in vivo, 6 mg/kg, 6-11 yrs old, 6 mg/kg, Day 1
Experimental Readout: Cmax (ng/mL)
The response must be a number in ng/mL with no trailing unit.

Query block: # lookup: Cmax of COCCCOc1cc(C[C@@H](C[C@H](N)[C@@H](O)C[C@H](C(=O)NCC(C)(C)C(N)=O)C(C)C)C(C)C)ccc1OC
Result block: 323

* * *

- Assay Details: Pharmacokinetics in pediatric patients, open label multiple dose study
- Condition Description: human, in vivo, 6 mg/kg, 12-17 yrs old, 6 mg/kg, Day 8; read-out: Tmax, Median
Experimental Readout: Tmax (h)
# unit: h | format: bare number

Query block: Need Tmax, item COCCCOc1cc(C[C@@H](C[C@H](N)[C@@H](O)C[C@H](C(=O)NCC(C)(C)C(N)=O)C(C)C)C(C)C)ccc1OC
Result block: 2
